Tested on: MV4-11 cells, human B-myelomonocytic leukemia
methodSummary: Leukemia cell line activity assay (Cell Counting Kit-8, 5 days), MV4-11
particulars: Homo sapiens, MV4-11, 120 h, read-out: MV4-11 CC50, MV4-11 cells, 5 days incubation
Label key: yes means CC50 under 400 nM; no means CC50 of 400 nM or more.

Exercise: State whether 400 nM exceeds CC50 recorded for CCCC(CCC)COC(=O)[C@H](C)N[P@](=O)(OCC1(COC(=O)C(C)(C)C)C/C1=C/n1cnc2c(=O)[nH]c(N)nc21)Oc1ccccc1 (some centres unmarked) .
Key: yes

Exercise: Lab note: confirm whether the reported CC50 for this compound is below 400 nM, equality not counting. compound: COC(=O)[C@H](CC(C)C)N[P@](=O)(OCC1(COC(=O)C(C)C)C/C1=C/n1cnc2c(=O)[nH]c(N)nc21)Oc1ccccc1 (single isomer, unassigned)
Key: no

Exercise: Here's an entry: CCC(CC)COC(=O)[C@H](Cc1ccccc1)N[P@](=O)(OCC1(COC(=O)C(C)C)C/C1=C/n1cnc2c(=O)[nH]c(N)nc21)Oc1ccccc1 (single isomer, unassigned) . Is its CC50 below 400 nM?
Key: yes

Exercise: Please let me know if CCC[C@H](C)OC(=O)[C@H](C)N[P@](=O)(OCC1(COC(=O)C(C)C)C/C1=C/n1ccc(N)nc1=O)Oc1ccccc1 (single isomer, unassigned) shows CC50 below 400 nM.
Key: no

Exercise: Please let me know if CCCC(=O)OC[C@]1(CO[P@@](=O)(N[C@@H](C)C(=O)OCC(CCC)CCC)Oc2ccccc2)C/C1=C/n1cnc2c(=O)[nH]c(N)nc21 shows CC50 below 400 nM.
Key: yes
